- Species on record: Bos taurus
- test_summary: Inhibition of bovine liver beta-glucuronidase assessed as reduction of p-nitrophenol release using p-nitrophenyl-glycoside as substrate at 1000 uM by spectrophotometric analysis relative to control
endpoint: inhibition (%)

[[record]]
smiles_entry = "Cl.OC[C@H]1N[C@H]([C@@H](O)CCCCCCc2ccc(Cl)cc2)[C@@H](O)[C@@H]1O"
value_measured = 0

[[record]]
smiles_entry = "Cc1ccc(CCCCCCC[C@H]2N[C@H](CO)[C@@H](O)[C@@H]2O)cc1.Cl"
value_measured = 0

[[record]]
smiles_entry = "OC[C@H]1N[C@H](CCCCCCCc2ccccc2)[C@@H](O)[C@@H]1O"
value_measured = 9.8

[[record]]
smiles_entry = "Cl.OC[C@H]1N[C@H](CCCCCCCc2cccc(F)c2)[C@@H](O)[C@@H]1O"
value_measured = 6.9

[[record]]
smiles_entry = "O=C1CCCC=C1CCCCCCC[C@H]1N[C@H](CO)[C@@H](O)[C@@H]1O"
value_measured = 46.1

[[record]]
smiles_entry = "Cl.OC[C@@H]1N[C@@H]([C@@H](O)CCCCCCc2ccc(F)c(F)c2)[C@H](O)[C@H]1O"
value_measured = 24.4

[[record]]
smiles_entry = "Cc1ccc(CCCCCC[C@@H](O)[C@H]2N[C@H](CO)[C@@H](O)[C@@H]2O)cc1"
value_measured = 0

[[record]]
smiles_entry = "Cl.OC[C@H]1N[C@H]([C@H](O)CCCCCCc2ccc(F)cc2)[C@@H](O)[C@@H]1O"
value_measured = 7.1

[[record]]
smiles_entry = "OC[C@H]1N[C@H](CCCCCCCc2ccccc2)[C@@H](O)[C@H]1O"
value_measured = 12.7

[[record]]
smiles_entry = "OC[C@H]1N[C@H]([C@@H](O)CCCCCCc2ccccc2)[C@@H](O)[C@@H]1O"
value_measured = 0

[[record]]
smiles_entry = "Cl.OC[C@H]1N[C@H]([C@H](O)CCCCCCc2ccc(F)c(F)c2)[C@@H](O)[C@@H]1O"
value_measured = 4.3

